Collected Vd values appear next to each entry.
experiment: Volume of distribution in Wistar Han rat; assay type: ADME; details: in vivo
Number only, in L/kg; omit the unit.

Example entries and their recorded answers appear below.
CCn1c(-c2cnc(C)nc2)nc2c(O[C@H]3CCN(C(=O)c4cocn4)C3)ncnc21 0.5
CCC(=O)N1CC[C@H](Oc2ncnc3c2nc(-c2cnc(C)nc2)n3CC)C1 1.2
CCn1c(-c2cnc(C)nc2)nc2c(O[C@H]3CCN(C(=O)C4CCC4)C3)ncnc21 0.6
CCn1c(-c2cnc(C)nc2)nc2c(N[C@H]3CCN(C(=O)C4CCOCC4)C3)ncnc21 0.7

State its Vd for this compound: `CCn1c(-c2cnc(C)nc2)nc2c(O[C@H]3CCN(C(=O)[C@H]4C[C@@H](OC)C4)C3)ncnc21` 0.5

State its Vd for this compound: `CCn1c(-c2cnc(C)nc2)nc2c(N[C@H]3CCN(C(=O)N4CC(OC)C4)C3)ncnc21` 0.7

State its Vd for this compound: `CCn1c(-c2cnc(C)nc2)nc2c(N[C@H]3CCN(C(=O)c4cocn4)C3)ncnc21` 0.6

State its Vd for this compound: `CCn1c(-c2cnc(C)nc2)nc2c(O[C@H]3CCN(C(=O)N4CC(OC)C4)C3)ncnc21` 0.4

State its Vd for this compound: `CCn1c(-c2ccc(C(F)(F)F)nc2)nc2c(O[C@H]3CCN(C(=O)N4CC(OC)C4)C3)ncnc21` 0.2

State its Vd for this compound: `CCn1c(-c2cnc(C)nc2)nc2c(O[C@H]3CCN(C(=O)C4CCOCC4)C3)ncnc21` 0.8

State its Vd for this compound: `CCn1c(-c2cnc(C)nc2)nc2c(N[C@H]3CCN(C(=O)C4CC(F)(F)C4)C3)ncnc21` 0.9

###

experiment: Volume of distribution in C57BL/6 mouse; format: ADME; conditions: in vivo
measurementLabel: Vd (L/kg)
Number only, in L/kg; omit the unit.

State its Vd for this compound: `CCn1c(-c2cnc(C)nc2)nc2c(N[C@H]3CCN(C(=O)C4CC4)C3)ncnc21` 0.2

###

Collected Vdu values appear next to each entry.
experiment: Unbound volume of distribution in Wistar Han rat; format: ADME; details: in vivo
Number only, in L/kg; omit the unit.

Example entries and their recorded answers appear below.
compound	unitOfMeasurement	Vdu
CCn1c(-c2cnc(C)nc2)nc2c(N[C@H]3CCN(C(=O)N4CC(OC)C4)C3)ncnc21	L/kg	4.8
CCn1c(-c2cnc(C)nc2)nc2c(O[C@H]3CCN(C(=O)C4CC(F)(F)C4)C3)ncnc21	L/kg	3
CCC(=O)N1CC[C@H](Oc2ncnc3c2nc(-c2cnc(C)nc2)n3CC)C1	L/kg	2.4

State its Vdu for this compound: `CCn1c(-c2ccc(C(F)(F)F)nc2)nc2c(O[C@H]3CCN(C(=O)C4CC4)C3)ncnc21` 8.3

State its Vdu for this compound: CCn1c(-c2cnc(C)nc2)nc2c(N[C@H]3CCN(C(=O)C4CCOC4)C3)ncnc21 (stereo partly drawn) 2.3

State its Vdu for this compound: `CCn1c(-c2ccc(C(F)(F)F)nc2)nc2c(N[C@H]3CCN(C(=O)C4CC4)C3)ncnc21` 8.8

###

target: PI3-kinase p110-delta/p85-alpha (Homo sapiens); assay: Inhibition of N-terminal His6-tagged recombinant full length human p110delta/untagged recombinant full length human p85alpha expressed in baculovirus infected Sf21 insect cells using PIP2 as substrate preincubated for 15 mins followed by substrate addition and measured after 1 hr by HTRF assay
Sequence (P27986 whole entry): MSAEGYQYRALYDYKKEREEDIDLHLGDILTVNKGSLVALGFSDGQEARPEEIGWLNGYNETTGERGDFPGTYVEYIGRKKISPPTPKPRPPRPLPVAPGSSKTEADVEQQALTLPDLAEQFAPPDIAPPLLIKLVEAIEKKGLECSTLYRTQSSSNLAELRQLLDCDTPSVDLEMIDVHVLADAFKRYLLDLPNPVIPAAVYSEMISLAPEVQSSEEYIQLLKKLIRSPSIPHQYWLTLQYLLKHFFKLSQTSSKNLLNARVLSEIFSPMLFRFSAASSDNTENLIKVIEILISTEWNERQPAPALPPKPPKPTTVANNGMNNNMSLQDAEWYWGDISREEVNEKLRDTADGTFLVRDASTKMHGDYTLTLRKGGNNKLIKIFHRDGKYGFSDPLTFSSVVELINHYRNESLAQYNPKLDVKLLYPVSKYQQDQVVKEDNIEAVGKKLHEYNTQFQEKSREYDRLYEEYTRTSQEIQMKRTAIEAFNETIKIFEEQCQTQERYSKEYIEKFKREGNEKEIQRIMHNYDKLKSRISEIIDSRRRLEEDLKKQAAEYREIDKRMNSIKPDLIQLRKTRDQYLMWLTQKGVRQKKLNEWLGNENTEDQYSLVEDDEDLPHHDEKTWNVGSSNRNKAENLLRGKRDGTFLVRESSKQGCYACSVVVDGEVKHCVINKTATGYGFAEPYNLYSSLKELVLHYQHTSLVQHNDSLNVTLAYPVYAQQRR
Sequence (O00329 whole entry): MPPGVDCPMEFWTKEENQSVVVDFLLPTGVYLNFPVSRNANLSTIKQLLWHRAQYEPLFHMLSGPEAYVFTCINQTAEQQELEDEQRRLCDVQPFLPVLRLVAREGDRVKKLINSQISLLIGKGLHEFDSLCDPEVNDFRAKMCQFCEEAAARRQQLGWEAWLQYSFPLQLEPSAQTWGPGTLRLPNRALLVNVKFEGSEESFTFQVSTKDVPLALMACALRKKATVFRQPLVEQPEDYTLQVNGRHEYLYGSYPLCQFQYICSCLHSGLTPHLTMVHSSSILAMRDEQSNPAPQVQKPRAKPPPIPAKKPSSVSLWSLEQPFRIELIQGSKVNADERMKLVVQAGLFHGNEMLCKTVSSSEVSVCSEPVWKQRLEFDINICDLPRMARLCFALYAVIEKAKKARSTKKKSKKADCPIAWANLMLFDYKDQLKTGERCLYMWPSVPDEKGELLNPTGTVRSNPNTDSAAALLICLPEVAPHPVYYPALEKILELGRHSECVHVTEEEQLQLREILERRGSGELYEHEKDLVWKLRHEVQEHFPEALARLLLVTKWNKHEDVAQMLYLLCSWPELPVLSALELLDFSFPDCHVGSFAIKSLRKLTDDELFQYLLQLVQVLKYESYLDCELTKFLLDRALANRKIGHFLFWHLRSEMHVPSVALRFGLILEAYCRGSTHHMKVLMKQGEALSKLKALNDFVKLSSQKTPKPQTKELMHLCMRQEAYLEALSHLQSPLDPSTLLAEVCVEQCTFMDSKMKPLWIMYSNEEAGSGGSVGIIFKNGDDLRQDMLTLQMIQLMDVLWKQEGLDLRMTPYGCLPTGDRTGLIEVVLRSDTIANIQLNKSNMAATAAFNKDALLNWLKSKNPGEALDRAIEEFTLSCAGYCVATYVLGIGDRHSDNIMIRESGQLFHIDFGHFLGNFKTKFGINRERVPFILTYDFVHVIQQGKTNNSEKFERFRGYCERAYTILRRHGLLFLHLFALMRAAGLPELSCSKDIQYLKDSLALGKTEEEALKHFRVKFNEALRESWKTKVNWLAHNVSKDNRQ
Collected pIC50 values appear next to each entry.
For clarity, pIC50 is expressed as the negative log10 of concentration in mol/L.

CCn1c(-c2ccc(C(F)(F)F)nc2)nc2c(O[C@H]3CCN(C(=O)c4cocn4)C3)ncnc21 8.12
CCn1c(-c2cnc(C)nc2)nc2c(N[C@H]3CCN(C(=O)N4CC(OC)C4)C3)ncnc21 9.15
CCn1c(-c2cnc(C)nc2)nc2c(O[C@H]3CCN(C(=O)C4CC4)C3)ncnc21 8.23
CCC(=O)N1CC[C@H](Nc2ncnc3c2nc(-c2cnc(C)nc2)n3CC)C1 8.72

Please look at the following compound next.
State its pIC50 for this compound: `CCC(=O)N1CC[C@H](Nc2ncnc3c2nc(-c2cnn(CC)c2C)n3CC(F)(F)F)C1` 8.23

###

test: Protein binding in human plasma; type: ADME, cell-free; settings: read-out: PPB (converted)
measurementLabel: fraction unbound
Answer with a number only.

State its fraction unbound for this compound: `CCn1c(-c2cnc(C)nc2)nc2c(N[C@H]3CCN(C(=O)C4CC4)C3)ncnc21` 0.7

###

test: Intrinsic clearance in Wistar Han rat at 0.05 mg/kg, iv or 1 mg/kg, po; assay type: ADME, organism-based; settings: in vivo
Collected CL values appear next to each entry.

molecule	CL
CCn1c(-c2cnc(C)nc2)nc2c(O[C@H]3CCN(C(=O)C4CCOC4)C3)ncnc21 (stereo partly drawn)	12 mL/min/kg
CCn1c(-c2ccc(C(F)(F)F)nc2)nc2c(O[C@H]3CCN(C(=O)C4CC4)C3)ncnc21	240 mL/min/kg

State its CL for this molecule: `CCn1c(-c2cnc(C)nc2)nc2c(O[C@H]3CCN(C(=O)C4CCC4)C3)ncnc21` 270 mL/min/kg

###

assay: Half life in C57BL/6 mouse; type: ADME; conditions: in vivo
measurementLabel: half-life (min)
Number only, in min; omit the unit.

State its half-life for this compound: `CCn1c(-c2cnc(C)nc2)nc2c(N[C@H]3CCN(C(=O)C4CC4)C3)ncnc21` 48

###

test: Oral bioavailability in Wistar Han rat; assay type: ADME, organism-based; conditions: in vivo
measurementLabel: bioavailability (%)
Number only, in %; omit the unit.

CCn1c(-c2cnc(C)nc2)nc2c(N[C@H]3CCN(C(=O)C4CCC4)C3)ncnc21 74
CCn1c(-c2cnc(C)nc2)nc2c(N[C@H]3CCN(C(=O)N4CC(OC)C4)C3)ncnc21 16

State its bioavailability for this compound: `CCn1c(-c2cnc(C)nc2)nc2c(N[C@H]3CCN(C(=O)C4CC4)C3)ncnc21` 55

State its bioavailability for this compound: `CCn1c(-c2cnc(C)nc2)nc2c(O[C@H]3CCN(C(=O)c4cocn4)C3)ncnc21` 50

State its bioavailability for this compound: `CCn1c(-c2cnc(C)nc2)nc2c(O[C@H]3CCN(C(=O)[C@H]4C[C@@H](OC)C4)C3)ncnc21` 37

State its bioavailability for this compound: `CCn1c(-c2ccc(C(F)(F)F)nc2)nc2c(O[C@H]3CCN(C(=O)N4CC(OC)C4)C3)ncnc21` 52

State its bioavailability for this compound: `CCn1c(-c2cnc(C)nc2)nc2c(N[C@H]3CCN(C(=O)[C@H]4C[C@@H](OC)C4)C3)ncnc21` 52

###

assay: Apparent permeability in pig LLC-PK1 cells; assay type: ADME, cell-based, Sus scrofa
t means recorded Papp is 20 ×10⁻⁶ cm/s or above; f means it is below 20 ×10⁻⁶ cm/s.

compound	groupLabel
CCn1c(-c2ccc(C(F)(F)F)nc2)nc2c(O[C@H]3CCN(C(=O)C4CCOC4)C3)ncnc21 (some centres not stated)	t
CCn1c(-c2ccc(C(F)(F)F)nc2)nc2c(O[C@H]3CCN(C(=O)c4cocn4)C3)ncnc21	t
CCn1c(-c2cnc(C)nc2)nc2c(O[C@H]3CCN(C(=O)[C@H]4C[C@@H](OC)C4)C3)ncnc21	f
CCn1c(-c2cnc(C)nc2)nc2c(N[C@H]3CCN(C(=O)[C@H]4C[C@@H](OC)C4)C3)ncnc21	f
CCC(=O)N1CC[C@H](Oc2ncnc3c2nc(-c2cnc(C)nc2)n3CC)C1	t
CCn1c(-c2cnc(C)nc2)nc2c(N[C@H]3CCN(C(=O)N4CC(OC)C4)C3)ncnc21	f
CCn1c(-c2ccc(C(F)(F)F)nc2)nc2c(O[C@H]3CCN(C(=O)[C@H]4C[C@@H](OC)C4)C3)ncnc21	t
CCn1c(-c2cnc(C)nc2)nc2c(O[C@H]3CCN(C(=O)C4CC4)C3)ncnc21	t

Dear colleague, could you confirm whether `CCn1c(-c2cnc(C)nc2)nc2c(N[C@H]3CCN(C(=O)C4CCC4)C3)ncnc21` has Papp at or above 20 ×10⁻⁶ cm/s? t

Dear colleague, could you confirm whether `CCn1c(-c2ccc(C(F)(F)F)nc2)nc2c(O[C@H]3CCN(C(=O)N4CC(OC)C4)C3)ncnc21` has Papp at or above 20 ×10⁻⁶ cm/s? t

Dear colleague, could you confirm whether `CCC(=O)N1CC[C@H](Nc2ncnc3c2nc(-c2cnc(C)nc2)n3CC)C1` has Papp at or above 20 ×10⁻⁶ cm/s? t

Dear colleague, could you confirm whether `CCn1c(-c2cnc(C)nc2)nc2c(N[C@H]3CCN(C(=O)C4CC4)C3)ncnc21` has Papp at or above 20 ×10⁻⁶ cm/s? t

###

Collected IC50 values appear next to each entry.
target: Phosphatidylinositol 4,5-bisphosphate 3-kinase catalytic subunit delta isoform (Homo sapiens, UniProt O00329); experiment: Inhibition of PI3Kdelta in human Ramos cells assessed as reduction in anti-IgM-antibody-induced phosphorylation of AKT at Ser473 residue preincubated for 20 mins followed by anti-IgM antibody stimulation and measured after 30 mins by alphascreen assay; type: cell-based
Number only, in nM; omit the unit.

Example entries and their recorded answers appear below.
compound	experimentalResult
CCC(=O)N1CC[C@H](Nc2ncnc3c2nc(-c2cnc(C)nc2)n3CC)C1	42
CCn1c(-c2ccc(C(F)(F)F)nc2)nc2c(N[C@H]3CCN(C(=O)C4CC4)C3)ncnc21	12
CCn1c(-c2cnc(C)nc2)nc2c(O[C@H]3CCN(C(=O)C4CC4)C3)ncnc21	80
CCn1c(-c2cnc(C)nc2)nc2c(N[C@H]3CCN(C(=O)[C@H]4C[C@@H](OC)C4)C3)ncnc21	34
CCC(=O)N1CC[C@H](Nc2ncnc3c2nc(-c2ccc(C)nc2)n3C)C1	160
CCC(=O)N1CC[C@H](Nc2ncnc3[nH]c(-c4cnn(CC)c4C)nc23)C1	875
CCn1c(-c2cnc(C)nc2)nc2c(N[C@H]3CCN(C(=O)C4CCC4)C3)ncnc21	4
CCn1c(-c2ccc(C(F)(F)F)nc2)nc2c(O[C@H]3CCN(C(=O)C4CCOC4)C3)ncnc21 (some centres undefined)	110

State its IC50 for this compound: `CCn1c(-c2cnc(C)nc2)nc2c(O[C@H]3CCN(C(=O)C4CC(F)(F)C4)C3)ncnc21` 32

The values you see were collected from ChEMBL document CHEMBL4834420.
